- PROTOCOL DESCRIPTION: Pharmacokinetics of AB.Fab variants in rabbits (HER2 Binding ELISA)
- Assay type: in vivo
- MEASUREMENT CONDITIONS: Rabbit; group mean
Bridges are numbered along the chain shown (N, C = ends). Where no end group is shown, it is not given here.
TEST READOUT: Vss (L/kg)
Numbers only, in L/kg.

Check out these entries, answers already filled in.
>>> recorded_measurement("AB.Fab 4D5-H11 (DICLPRWGCL; disulfide 3-9 (inferred); also: part of Fab heavy chain)")
0.101
>>> recorded_measurement("AB.Fab 4D5-H10 (DICLPRWGCLW; disulfide 3-9 (inferred); also: part of Fab heavy chain)")
0.0987
>>> recorded_measurement("AB.Fab 4D5-H8 (IEDICLPRWGCLWE; disulfide 5-11 (inferred); also: part of Fab heavy chain)")
0.0659

# evaluate next
Task: May I ask what Vss has been recorded for AB.Fab 4D5-H4 (DICLPRWGCLWED; disulfide 3-9 (inferred); also: part of Fab heavy chain) ?
Result: 0.0822

---

- PROTOCOL DESCRIPTION: Pharmacokinetics of AB.Fab variants in rats (HER2 Binding ELISA)
- Type: in vivo
- MEASUREMENT CONDITIONS: Rat; group mean
- Experimental: All pharmacokinetic (PK) studies were conducted according to protocols approved by the Institutional Animal Care and Use Committee at Genentech, Inc. Sprague Dawley rats were supplied by Charles River Laboratories (Hollister, Calif. USA). New Zealand White (NWZ) rabbits were supplied by Myrtle's Rabbitry (Thompson Station, Tenn. USA). BALB-c mice were supplied by Charles River (Hollister, Calif. USA). […]
Bridges are numbered along the chain shown (N, C = ends). Where no end group is shown, it is not given here.
Exercise: for every item that follows, state its recorded AUC.

Check out these entries, answers already filled in.
>>> recorded_measurement("AB.Fab 4D5-H11 (DICLPRWGCL; disulfide 3-9 (inferred); also: part of Fab heavy chain)")
"57.0 ± 7.39 µg·h/mL"
>>> recorded_measurement("AB.Fab 4D5-H10 (DICLPRWGCLW; disulfide 3-9 (inferred); also: part of Fab heavy chain)")
"541 ± 77.9 µg·h/mL"
>>> recorded_measurement("AB.Fab 4D5-H8 (IEDICLPRWGCLWE; disulfide 5-11 (inferred); also: part of Fab heavy chain)")
"1890 ± 294 µg·h/mL"

# evaluate next
Task: May I ask what AUC has been recorded for AB.Fab 4D5-H4 (DICLPRWGCLWED; disulfide 3-9 (inferred); also: part of Fab heavy chain) ?
Result: 1450 ± 146 µg·h/mL

---

- PROTOCOL DESCRIPTION: Pharmacokinetics of AB.Fab variants in rats (HER2 Binding ELISA)
- Assay type: in vivo
- MEASUREMENT CONDITIONS: Rat; group mean
Bridges are numbered along the chain shown (N, C = ends). Where no end group is shown, it is not given here.
Exercise: for every item that follows, state its recorded CL.
Answers are plain numbers, in mL/min/kg.

>>> recorded_measurement("AB.Fab 4D5-H4 (DICLPRWGCLWED; disulfide 3-9 (inferred); also: part of Fab heavy chain)")
0.054
>>> recorded_measurement("AB.Fab 4D5-H8 (IEDICLPRWGCLWE; disulfide 5-11 (inferred); also: part of Fab heavy chain)")
0.0407
>>> recorded_measurement("AB.Fab 4D5-H11 (DICLPRWGCL; disulfide 3-9 (inferred); also: part of Fab heavy chain)")
1.34

# evaluate next
Task: May I ask what CL has been recorded for AB.Fab 4D5-H10 (DICLPRWGCLW; disulfide 3-9 (inferred); also: part of Fab heavy chain) ?
Result: 0.154

Source of measurements: patent US20140294863A1
